# Test system: COLO 205 colon
# TEST PROTOCOL: NCI tumour cell line growth inhibition, 48 h; in the data active = GI50 below about 0.43 µM; inactive = the rest
Please reply with one of these outcomes: active, inactive

A selection of reference data follows.
Cc1[nH]nc(C(=O)Nc2n[nH]c3ccccc23)c1[N+](=O)[O-] ... inactive
COc1cccc(C2C(C#N)=C(N)Oc3cc(OC)ccc32)c1 (configuration not stated) ... active
CN1c2ccccc2C(C)(C)C12CC(c1ccc(Cl)c(S(=O)(=O)N3CCCC3)c1)=NO2 (configuration not stated) ... inactive
COc1ccc(-c2[nH]ncc2-c2cc(OC)c(OC)c(OC)c2)cc1 ... active
COc1cc(/C=C/C(=O)c2cc(OC)c(OC)c(OC)c2)cc(OC)c1OC ... inactive

# evaluate next
Could you kindly confirm the outcome this assay logged for COC(=O)c1cc2c(cc1Cl)SC(N(N(C)C)S(=O)(=O)c1ccc(Cl)cc1)=NS2(=O)=O ?
inactive

###

# System: NCI-H23 lung
# TEST PROTOCOL: NCI tumour cell line growth inhibition, 48 h
So I've got a bunch of compounds here, and I need their GI50 values.

Study these solved cases before continuing.
COc1ccc(-c2nn(-c3cccc(NC(=O)Nc4cccc(C(F)(F)F)c4)c3)cc2-c2ccncc2)cc1Cl ... 3.02 µM
COc1cccc2c(Nc3ccc(C(=O)NCCN(C)C)cc3)cc(-c3ccccc3)nc12 ... 20.3 µM
CC(C)(C)n1cc(-c2ccnc(NCCNS(=O)(=O)c3cccc4ccccc34)c2)c(-c2cccc(F)c2)n1 ... 14.9 µM
Nc1nc(Nc2ccc3c(c2)CCC(N2CCCC2)CC3)nn1-c1cc2c(nn1)-c1ccccc1CCC2 (stereo not given) ... 1.71 µM

Briefly, GI50 measured for Nc1c(O)c(S(=O)(=O)O)c(O)c2c1C(=O)c1ccccc1C2=O : 2.82 µM

###

Assignment: determine reported TGI for the given compounds.
# System: MCF7 breast
# TEST PROTOCOL: NCI tumour cell line growth inhibition, 48 h
Give bare numbers, in µM.

Worked cases, answers included:
Cc1ccc(CC(=O)Nc2ccc(NC(=O)CNC(=O)/C=C/c3ccc(-c4ccccc4)cc3)cc2C(=O)c2ccccc2)cc1 ... 3.69
CC(CN(C)C)C(=O)/C=C/c1ccc(Cl)c(Cl)c1 (stereo unspecified) ... 0.929

For each entry beneath this line, provide reported TGI.
1. COc1cccc2c1C(=O)c1c(O)c3c(c(O)c1C2=O)C[C@@](O)(/C(C)=N\O)C[C@@H]3OC1CC(N)C(O)C(C)O1 (stereo partly specified)
2. CC1CN=C(N(C)C(=O)Nc2ccc(Cl)c(Cl)c2)S1 (stereo unspecified)
3. O=C1C(CN2CCCC2)CCCC1CN1CCCC1 (stereo unspecified)
4. O=C(Nc1ccccc1F)c1ccc(NC2=C(Cl)C(=O)N(Cc3ccccc3)C2=O)cc1

1. 9.97
2. 59.7
3. 2.8
4. 5.06

###

# System: T-47D breast
# TEST PROTOCOL: NCI tumour cell line growth inhibition, 48 h
READOUT NAME: TGI

Some solved cases for reference:
COC1=CCC2=C(CCN(C(=O)C3CCC3)C2Cc2ccc(OC)c(O)c2)C1 (stereo unspecified) ... 62.4 µM
CC(C)(C)c1cc(C2NC(=O)NC2=O)cc(C(C)(C)C)c1O (stereo unspecified) ... > 100 µM
Cc1[nH]nc(C(=O)Nc2n[nH]c3ccccc23)c1[N+](=O)[O-] ... > 100 µM
OC1(c2ccc(Cl)cc2)c2ccccc2C2=NCc3ccccc3CN21 (stereo unspecified) ... > 61.7 µM

State recorded TGI for all listed molecules.
1. O=C1OC(C(O)C(O)C(O)CO)C(O)C1O (stereo unspecified)
2. O=C(CCC(=O)OCC1OC(O)(CC2OC(CO)C(O)C(O)C2O)C(O)C1O)OCc1ccccc1 (stereo unspecified)
3. CC(C)CC(=O)CC(O)C(Cl)(Cl)Cl (stereo unspecified)

["> 100 µM", "> 100 µM", "> 100 µM"]

Consider the following items and state reported TGI for each.
1. C=C1CO[C@@H]2C[C@@H]1CCC1(C)OC1CC/C(C)=C/CC[C@@]2(C)O (stereo partly specified)
2. O=[N+]([O-])c1ccc2c(c1)S(=O)c1ccccc1-2 (stereo unspecified)
3. Cc1nn(C(=O)c2ccc(Cl)cc2)c2c1C(c1ccco1)SC(N)=N2 (stereo unspecified)
4. c1ccc2c(c1)ccc1c3ccccc3ccc21

["> 69.2 µM", "> 100 µM", "> 10 µM", "> 50 µM"]
